# testTarget: T1, HER2ECDHis (human, UniProt P04626 23-653, biotinylated in the cross-block ELISA (sites not given))
# T1 construct: range 1-653; expressed in HEK-293F; also called soluble HER2; biotinylated HER2ECDHis
# testDescription: ELISA; competitor F5
Below, each entry is listed alongside its reported % binding vs no competitor.
Reply numerically in %, unit not repeated.

Consider the following illustrative entries.
binder | % binding vs no competitor, %
HuMab 159 (antibody, V domains shown, also called TH1014-159; PC1014-159) VH: EVQLVQSGAEVKKPGESLKISCKGSGYNFTSYWIGWVRQMPGKGLEWMGIIYPGDSDTRYSPSFQGQVTISADKSISTAYLQWSSLKASDTAMYYCARWGTYYDILTGYFNWFDPWGQGTLVTVSS VL: DIQMTQSPSSLSASVGDRVTITCRASQGISSWLAWYQQKPEKAPKSLIYAASSLQSGVPSRFSGSGSGTDFTLTISSLQPEDFATYYCQQYYIYPWTFGQGTKVEIK | 86
HuMab 132 (antibody, V domains shown) VH: QVQLVQSGAEVKKPGASVKVSCKASGYTFTSYGISWVRQAPGQGLEWMGWISAYNGNSNYVQKFQGRVTMTTDTTTSTAYMELRSLTSDDTAVYYCAREYSYDSGTYFYYGMDVWGQGTTVTVSS VL: EIVLTQSPATLSLSPGERATLSCRASQSVSSYLAWYQQKPGQAPRLLIYDASNRATGIPARFSGSGSGTDFTLTISSLEPEDFAVYYCQQRSNWPMYTFGQGTKLEIK | 379

Return reported % binding vs no competitor; argument: HuMab 098 (antibody, V domains shown, also called TH1014-098; PC1014-098) VH: EVQLLESGGGLVQPGGSLRLSCAASGFTFSNYGMSWVRQAPGKGLEWVSAISGSAYSTYYADSVKGRFTISRDNSKNTLWLQMNSLRAEDTAVYYCAKAHYHGSGSYYTLFDYWGQGTLVTVSS VL: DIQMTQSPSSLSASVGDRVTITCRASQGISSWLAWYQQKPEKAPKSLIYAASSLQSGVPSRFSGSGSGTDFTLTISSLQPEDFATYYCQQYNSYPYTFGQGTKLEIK 96

All values here come from patent US20170369590A1.
